# testSystem: rat spinal cord membrane receptor
# protocolText: competition binding, rat spinal cord membranes
No end group written: not given here.
recordedMetric: pKi

PDVDHVFLRF-NH2 [Schisto(FLRFNH2) (Pro-Asp-Val-Asp-His-Val-Phe-Leu-Arg-Phe-amide)] :: 6.39
AGEGLSSPFWSLAAPQRF-NH2 [rat A-18-F-amide (…-NH2)] :: 9
H-KHQYLRF-NH2 [AF-2 (H-Lys-His-Gln-Tyr-Leu-Arg-Phe-NH2)] :: 7.96
H-KNQFIRF-NH2 [AF-1 (FMRF-like peptide H2N-Lys-Asn-Gln-Phe-Ile-Arg-Phe-NH2)] :: 7.56

The measured values listed here are drawn from patent US6849727.
